All values here come from ChEMBL document CHEMBL3885861.

- Species: Rattus norvegicus
- Protocol: Open TG-GATES - Regimen: Single
- Assay type: toxicity, organism-based, Sprague-Dawley
- Set-up: regimen Single, gender Male, age 6 weeks
- Condition context: in vivo, po, 300 mg/kg, 3 h, tissue Blood, route gavage, dose level Middle
Observable: Lym (%)
Express your answer in %, writing the number without its unit.

Observe how each entry below is paired with its result.
CCc1cc(C(N)=S)ccn1 [ETHIONAMIDE] :: 79.4
C[C@H](CS)C(=O)N1CCC[C@H]1C(=O)O [CAPTOPRIL] :: 83.6

Enquiry: Entry under review: Clc1ccccc1CN1CCc2sccc2C1 [TICLOPIDINE] . Reported Lym?
Return: 73.4

Enquiry: // Lym lookup, key: O=C(O)c1cc(/N=N/c2ccc(S(=O)(=O)Nc3ccccn3)cc2)ccc1O [SULFASALAZINE]
Return: 79
